Target chain: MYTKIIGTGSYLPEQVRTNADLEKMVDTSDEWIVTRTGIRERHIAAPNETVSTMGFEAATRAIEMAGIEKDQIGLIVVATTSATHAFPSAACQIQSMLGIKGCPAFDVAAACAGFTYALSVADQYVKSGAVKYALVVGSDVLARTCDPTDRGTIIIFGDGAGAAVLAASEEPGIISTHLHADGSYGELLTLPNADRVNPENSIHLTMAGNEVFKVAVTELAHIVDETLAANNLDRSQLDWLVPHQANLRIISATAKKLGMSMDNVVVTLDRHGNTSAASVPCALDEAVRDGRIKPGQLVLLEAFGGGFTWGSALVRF
Assembled from different publications: IC50 for the protein given by its sequence.
quantity: IC50 (µM)

Previously resolved entries follow.
| line_notation | IC50 / µM |
| --- | --- |
| O=C(NCCCC/N=C/c1cc(I)ccc1O)c1ccccc1O | 1.48 |
| Oc1ccc(Cl)cc1/C=N/Nc1nc(-c2ccc(Cl)cc2)cs1 | 11.7 |

(a) Oc1ccc(Cl)cc1/C=N/Nc1nc(-c2ccc(Cl)c(Cl)c2)cs1
(b) O=C(NCCC/N=C/c1cc(I)cc(I)c1O)c1ccccc1O
Of the two listed items, a and b , which carries the larger IC50 figure? Please reply using the label of the selected record. a

(I) COc1ccc(/C=N/n2c(S)nnc2-c2cnccn2)cc1OC
(II) O=C(NCC/N=C/c1c(O)ccc2ccccc12)c1ccccc1O
Of the two listed items, I and II , which carries the larger IC50 figure? Please reply using the label of the selected record. I
